The following compounds are listed with their measured CC50 at 72 h values.
Experiment: Cytotoxicity against HEK293 cells after 72 hrs by MTT assay
Type: cell-based
Conditions: human, read-out: LC50

| compound | inequality-operator | CC50 at 72 h / µg/mL |
| --- | --- | --- |
| CC(C)[C@H]1C[C@@H](N(Cc2ccccc2)c2ccccc2)CCN1c1ccccc1 (relative stereo) | = | 127 |
| CC(C)[C@H]1C[C@@H](N(Cc2ccccc2)c2ccccc2)CCN1C (relative stereo) | = | 35.9 |
| c1ccc(CN(c2ccccc2)[C@H]2CCN(c3ccccc3)[C@@H](c3ccccc3)C2)cc1 (relative stereo) | > | 28 |
| CO[C@H]1/C=C/O[C@@]2(C)Oc3c(C)c(O)c4c(O)c(c(/C=N/N5CCN(C)CC5)c(O)c4c3C2=O)NC(=O)/C(C)=C\C=C\[C@H](C)[C@H](O)[C@@H](C)[C@@H](O)[C@@H](C)[C@H](OC(C)=O)[C@@H]1C | > | 200 |
| CN1CC[C@H](N(Cc2ccccc2)c2ccccc2)CC1(C)C | = | 69.5 |
| CC(C)[C@@H]1C[C@@H](N(Cc2ccccc2)c2ccccc2)CCN1c1ccccc1 (relative stereo) | > | 28 |
| c1ccc(CN(c2ccccc2)[C@H]2CCN(c3ccccc3)[C@H](c3ccccc3)C2)cc1 (relative stereo) | > | 28 |
| CC1(C)C[C@@H](N(Cc2ccccc2)c2ccccc2)CCN1c1ccccc1 | = | 108 |
| NNC(=O)c1ccncc1 | > | 200 |
| CN1CCC(N(Cc2ccccc2)c2ccccc2)CC1 | = | 64.1 |
| COc1ccc(N(Cc2ccccc2)[C@H]2CCN(C)C(C)(C)C2)cc1 | = | 82 |
